Test: NCI Yeast Anticancer Drug Screen. Data for the mlh1 rad18 strain (AID 175)
Conditions: S. cerevisiae mlh1 rad18 strain growth inhibition; at 50.0 µM (retest, dose inferred, filed as 5.0); hits give high values
Compounds without any hit were thinned out: in the full panel of roughly 79,000, 15% have a hit.
Below, each of the compounds is paired with its reported growth inhibition value.
The reply should be a number in %, with the unit left off.

CC1=C(C2=C(C)C(=O)C(=O)c3cc(C)ccc32)c2ccc(C)cc2C(=O)C1=O : 99

## Input Which growth inhibition is reported for this compound? `CN(C)c1ccc(/C=C/c2sc3ccc4ccccc4c3[n+]2C)cc1`
## Output 97

## Input Which growth inhibition is reported for this compound? `COC(=O)c1nc(=S)[nH]c(C(=O)OC)c1C(=O)c1ccc(Cl)c(Cl)c1`
## Output 99

## Input Which growth inhibition is reported for this compound? `CC(C)c1ccc(Nc2n[nH]c(=S)s2)cc1`
## Output 82

====

Test: NCI Yeast Anticancer Drug Screen. Data for the bub3 strain (AID 167)
Conditions: S. cerevisiae bub3 mutant strain, at 5.0 µM (retest, dose inferred, filed as 0.5), hits give high values
Compounds without any hit were thinned out: in the full panel of roughly 79,000, 15% have a hit.
outcome-measure: growth inhibition (%)
The reply should be a number in %, with the unit left off.

Some entries whose results are on file:
NNc1cccc([N+](=O)[O-])c1 : -6
CC(C)=C1C=C2CC[C@@H]3[C@](C)(CCC[C@@]3(C)C(=O)O)[C@H]2CC1 : -1
Oc1ccc(Br)cc1Sc1cc(Br)ccc1O : 16
Cc1ccccc1N=C(N)Nc1ccccc1C (tested in a mixture with another compound) : 3
CN(C)c1ccc(SC#N)cc1 : 16

Below: the item to evaluate.
## Input Which growth inhibition is reported for this compound? COc1ccc(N=CC2CCCCC2=O)c([N+](=O)[O-])c1 (stereo unspecified)
## Output 13

====

Assay: NCI Yeast Anticancer Drug Screen. Data for the mlh1 rad18 strain (AID 175)
Details: S. cerevisiae mlh1 rad18 strain growth inhibition; at 5.0 µM (retest, dose inferred, filed as 0.5); hits give high values
Compounds without any hit were thinned out: in the full panel of roughly 79,000, 15% have a hit.
Entry flag: yes if growth inhibition reaches 30%; no if it does not.

CCOC(=O)c1cc(CC)sc1NC(=O)CC(C)=O : yes
CCOc1ccc(C(CN2CCOCC2)C(C)=O)cc1OC (centres undefined) : no
O=C(c1ccccc1)c1cc2ccccc2oc1=O : no

Now examine the next entry.
## Input Would you say `CC(=O)N1CC(=O)NC1=S` shows growth inhibition at minimum 30%?
## Output no

====

Assay: NCI Yeast Anticancer Drug Screen. Data for the rad50 strain (AID 155);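 further: 0% = growth of vehicle-only cultures of the same strain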
Conditions: S. cerevisiae rad50 strain growth inhibition; at 50.0 µM (retest, dose inferred, filed as 5.0)
The panel holds about 79,000 compounds, 15% with a hit somewhere; the sample as a whole holds those more often. Calls of active or inactive are those of the source. Cut-off read from the data, not from the text of the source: active = growth inhibition above about 70%; inactive = the rest.
I would appreciate it if you answered using one of these outcomes: active, inactive

## Input Which outcome did this test record for the molecule `Nc1ccc(C(=O)/C=C/c2ccccc2)cc1` ?
## Output inactive

## Input Which outcome did this test record for the molecule CCC(C)(O)Cc1ccc(Cl)cc1 (stereo unspecified) ?
## Output inactive

## Input Which outcome did this test record for the molecule `Cc1ccc(/C=N/Nc2cc(C)c3cccc(C)c3n2)s1` ?
## Output active

## Input Which outcome did this test record for the molecule `O=C1C=CC(=O)c2c(O)c(CO)c(CO)c(O)c21` ?
## Output active

## Input Which outcome did this test record for the molecule `CC1=CC[C@@H]2[C@@H](CC[C@@]2(C)O)C(C)(C)[C@H]1CC[C@@H]1[C@@]2(C)CCC(=O)C(C)(C)O[C@@H]2CC[C@]1(C)O` ?
## Output inactive

## Input Which outcome did this test record for the molecule `O=[N+]([O-])c1ccc(C(Br)c2ccc([N+](=O)[O-])cc2)cc1` ?
## Output active
